# Target Under Test: Human BCMA (human) (UniProt Q02223)
# Experimental Details: SPR, IgG on chip, huBCMA analyte
Attribute: koff
Result Type: koff

1. COMBO_Rd4_0.6nM_C02 (antibody, V domains shown, IgG) VH: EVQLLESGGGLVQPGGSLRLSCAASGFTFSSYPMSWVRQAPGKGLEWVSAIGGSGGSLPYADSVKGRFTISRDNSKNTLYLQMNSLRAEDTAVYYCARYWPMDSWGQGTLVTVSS VL: EIVLTQSPGTLSLSPGERATLSCRASIAVSSTYLAWYQQKPGQAPRLLMYDASIRATGIPDRFSGSGSGTDFTLTISRLEPEDFAVYYCQQYMVWPLTFGQGTKVEIK : 0.000185 s⁻¹
2. COMBO_Rd4_6nM_C02 (antibody, V domains shown, IgG) VH: EVQLLESGGGLVQPGGSLRLSCAASGFTFSSYAMNWVRQAPGKGLEWVSAISDSGGFVYYADSVKGRFTISRDNSKNTLYLQMNSLRAEDTAVYYCARYWPMDSWGQGTLVTVSS VL: EIVLTQSPGTLSLSPGERATLSCRASQSVSSSYLAWYQQKPGQAPRLLMYDASIRATGIPDRFSGSGSGTDFTLTISRLEPEDFAVYYCQQYEFWPLTFGQGTKVEIK : 0.000443 s⁻¹
